Origin of values: ChEMBL document CHEMBL1129127

// reported pIC50 for each item listed
Molecular target: Protein kinase C beta type (Homo sapiens)
Sequence (P05771 whole entry): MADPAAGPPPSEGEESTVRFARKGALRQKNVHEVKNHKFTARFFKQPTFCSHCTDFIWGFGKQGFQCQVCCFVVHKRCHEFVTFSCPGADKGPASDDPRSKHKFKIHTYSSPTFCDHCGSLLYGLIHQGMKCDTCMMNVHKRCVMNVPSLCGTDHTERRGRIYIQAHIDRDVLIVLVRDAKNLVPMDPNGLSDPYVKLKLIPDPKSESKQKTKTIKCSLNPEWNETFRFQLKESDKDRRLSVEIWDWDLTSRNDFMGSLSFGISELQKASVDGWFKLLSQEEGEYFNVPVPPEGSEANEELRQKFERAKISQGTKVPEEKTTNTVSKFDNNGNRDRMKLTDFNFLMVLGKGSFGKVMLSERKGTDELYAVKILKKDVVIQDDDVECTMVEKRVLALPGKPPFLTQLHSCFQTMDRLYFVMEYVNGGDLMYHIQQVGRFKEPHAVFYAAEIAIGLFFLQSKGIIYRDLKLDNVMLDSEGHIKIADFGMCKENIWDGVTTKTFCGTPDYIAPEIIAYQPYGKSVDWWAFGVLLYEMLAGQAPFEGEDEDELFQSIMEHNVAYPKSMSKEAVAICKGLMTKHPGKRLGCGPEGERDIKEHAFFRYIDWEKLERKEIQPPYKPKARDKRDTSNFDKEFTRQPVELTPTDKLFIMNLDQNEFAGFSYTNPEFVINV
Experiment: Inhibition of protein kinase C beta I
Bear in mind: pIC50 is minus log10 of a mol/L concentration; give just that figure.

>  <COMPOUND>
O=C(NC1CNCCCC1OC(=O)c1cc(O)c(C(=O)c2c(O)cccc2C(=O)O)c(O)c1)c1ccc(O)cc1 (single isomer, unassigned; (-))

>  <pIC50>
8.00

$$$$

Now let's try a different one.
Ask: Given the compound O=C(NC1CNCC1OC(=O)c1cc(O)c(C(=O)c2c(O)cccc2C(=O)O)c(O)c1)c1ccc(O)cc1 (configuration not stated) , what is its reported pIC50?
Reply: 8.00
